- method summary: folding stability dG unfold from chymotrypsin proteolysis; higher = more stable
Recorded folding stability dG unfold for the following sequences
observed property: folding stability dG unfold (kcal/mol)

INSERT INTO results (entry_sequence, observed_property, experimental_value) VALUES
  ('SAGGSAGGWITPDAAKEFADKWGFDDVNVEVLDVDPNNNYVRVKVTARNPKNGNERPIGEFWFPSAGGSAGG [r6_699_TrROS]', 'folding stability dG unfold', 1.46),
  ('SAGGSAGGMRLEIVVEMSEEEARELAEALRRELEERGYRVRVEVRRLPDGRLVVRVEIEPAPEPSAGGSAGG [r6_597_TrROS_Hall]', 'folding stability dG unfold', 4.49),
  ('SAGGSAGGSAMPGKTYRVRIRLYNEETGELVEERELEVETLDELKEAAEKEGWKIVEIEVESAGGSAGGSAG [r3_423_TrROS_Hall]', 'folding stability dG unfold', 3.49),
  ('SAGGMTETITGEFDDEEEAIAYAKKIVKEKYPNKNVTMEIETTYDPKTGKYKVTATITIPDEGEEHHSAGGS [r8_17_JUSTAS]', 'folding stability dG unfold', 5.61),
  ('SMPAEMSPEEVREAVRALVEEALAANPGEPVTVPIEEIRAALPGYSPEVLREVLGLTEEEIAAGPVTLRLSA [r9_525_JUSTAS]', 'folding stability dG unfold', -0.45),
  ('SAGGSISVEELKKLPPDSTLTYTEGDKLYEIKVYKNPEGALSIEITEIDPNTGSPVKTEIVNLEELLSAGGS [r16_763_JUSTAS]', 'folding stability dG unfold', 3.53),
  ('SAGGSPIISTEKSSSGVTTITFPDGTVVTEVTTPLPDGTVLTTTTVTPPNAPVSTTTTTDPVPPGLPSAGGS [r16_211_JUSTAS]', 'folding stability dG unfold', 0.702),
  ('SAGGSALTPAVAERLRELFPDGDLGLKAVKPGEVVVFPNGARNFNTEDAERVVVVLPDGEPLVLDVSAGGSA [r2_166_TrMRF]', 'folding stability dG unfold', 0.117),
  ('SAGGSAGGSAGGKKVKVLTLTIELEVKDSNGKKYKVKATVTLIYDEKTKKLYLNISIEPSAGGSAGGSAGGS [r10_795_TrROS_Hall]', 'folding stability dG unfold', 5.05),
  ('SAGGSAGGSMIIIVKLPNGEELPIEVEGEEEAEKIAEEIVKALIEKGITPVSVEIRPIKPEEGSAGGSAGGS [r12_301_TrMRF]', 'folding stability dG unfold', 2.28),
  ('SAGGSADPGKPIQIAIMIHIDPEPGRIEIPIYIMDDNRVRPVSIEFTPAGTLKIEVGNKEIEIPIKSAGGSA [r15_507_TrROS]', 'folding stability dG unfold', 2.01),
  ('SAMSPEEIRARARALLEEKYPDKPYTLLSVEVDPSTGRVTVTWESPTPEKTTVTTPLTVTFGADGSLRESAG [r14_183_JUSTAS]', 'folding stability dG unfold', 1.97),
  ('SAGGSAGGSAGMIDIKFEKIEGSSEYRATLTRPGGEVVPVLFSSSESAEEAKERAIELLESAGGSAGGSAGG [r17_161_JUSTAS]', 'folding stability dG unfold', 1.28),
  ('SAGGSAGGSPPNKEVYIRIKIEYDGPNGQPIMEFWIPADEITPSFIEELMNRGGIKVDIELIPSAGGSAGGS [r12_398_TrROS]', 'folding stability dG unfold', 2.99),
  ('SAGGTMKYDVEQKYKYPDPDGNPGGEGKHTQEVEVPPPPVIIIPPNDRELAKELAEKFGIPITPDDIASAGG [r19_315_TrROS]', 'folding stability dG unfold', 0.5),
  ('SAGGMEIKIEKEGNKIKITIKNENGEIEEFEITLKDGKKYRIIIDKDNPNTIYIVDEKTGKTIVLKASAGGS [r16_198_TrROS_Hall]', 'folding stability dG unfold', 4.55),
  ('SAGGKTVVLEFDSVEDLKAALPPGAEVEIVVIREDGSKKTITVPAKDLKLELKPGEKYRVVIKVKPKKSAGG [r13_461_TrROS_Hall]', 'folding stability dG unfold', 2.49),
  ('SAGGSALPDIEVEELVRRLLELLEEDQPFRIVVFPPGGRWLTLDELLNVPAEEIPDLVVLVFVPDLSAGGSA [r15_144_TrMRF]', 'folding stability dG unfold', 3.49),
  ('SAGGNIKIEVYRSPDYYMIRIKLDGKPYEIPIDPGNTEEEAAEQALDNLQEKFPDKPIKIKDVEIYPYSAGG [r13_884_TrROS]', 'folding stability dG unfold', 0.513),
  ('ETIYLSSSNPEEVIKALKEAASKGKTVVVEANPEFFKEFIAQGFKVEKILKIEPIPGGDGYRAEIKISPGGS [r1_173_TrMRF]', 'folding stability dG unfold', 1.95),
  ('SAGGSAGGSAKEIEVRVEKDEETGKYRVTIRVDGKEIEIEVDVPKTLEEAERKAKELLKELSAGGSAGGSAG [r3_104_TrROS_Hall]', 'folding stability dG unfold', 2.77),
  ('SAGGSAGGSAGKKYKVVEVKENKDGTVELVVENENGEKKKITLSKEELDKLKAGDTVELKSAGGSAGGSAGG [r11_943_TrROS_Hall]', 'folding stability dG unfold', 2.7),
  ('SAGGSAGGSAGPKIKIKKFPDFLIAEIEFPDGKKATAIFDPKTGKIIVFVGDKPIEIDIGSAGGSAGGSAGG [r11_846_TrMRF]', 'folding stability dG unfold', 3.49),
  ('SAGGSAGGSAGGPKLVLKIKTEIKIEKKLEFDPETGELTEEIEIEIKIEIELEPLPEGLSAGGSAGGSAGGS [r10_376_TrROS_Hall]', 'folding stability dG unfold', 3.24),
  ('SLIPIRPLATSPSGDLLIEVPAEEDLVEEIKKYLKEKFPGYTPVEVKPVESPPLYLVLFSHPSGKKVWLGSA [r9_1164_JUSTAS]', 'folding stability dG unfold', 1.35),
  ('SAGGSAGGSAGVPVVVRTVTGPEGGYVVVEFPNLKKVVLLPFTDGKPRPVVFDTDEVLKLVSAGGSAGGSAG [r3_426_TrMRF]', 'folding stability dG unfold', 0.722),
  ('SAGGSAGGSAGGMTLVIVVETEEQAEALAEELKKKGFEVTVERDEETNLLVVTVKVKPPPSAGGSAGGSAGG [r7_623_TrROS_Hall]', 'folding stability dG unfold', 3.36);
